We begin with a simple list: items and their reported IC50.
- study target: TrkA kinase (Homo sapiens)
- Construct: purchased Upstate, USA
- Sequence (P04629 33-796): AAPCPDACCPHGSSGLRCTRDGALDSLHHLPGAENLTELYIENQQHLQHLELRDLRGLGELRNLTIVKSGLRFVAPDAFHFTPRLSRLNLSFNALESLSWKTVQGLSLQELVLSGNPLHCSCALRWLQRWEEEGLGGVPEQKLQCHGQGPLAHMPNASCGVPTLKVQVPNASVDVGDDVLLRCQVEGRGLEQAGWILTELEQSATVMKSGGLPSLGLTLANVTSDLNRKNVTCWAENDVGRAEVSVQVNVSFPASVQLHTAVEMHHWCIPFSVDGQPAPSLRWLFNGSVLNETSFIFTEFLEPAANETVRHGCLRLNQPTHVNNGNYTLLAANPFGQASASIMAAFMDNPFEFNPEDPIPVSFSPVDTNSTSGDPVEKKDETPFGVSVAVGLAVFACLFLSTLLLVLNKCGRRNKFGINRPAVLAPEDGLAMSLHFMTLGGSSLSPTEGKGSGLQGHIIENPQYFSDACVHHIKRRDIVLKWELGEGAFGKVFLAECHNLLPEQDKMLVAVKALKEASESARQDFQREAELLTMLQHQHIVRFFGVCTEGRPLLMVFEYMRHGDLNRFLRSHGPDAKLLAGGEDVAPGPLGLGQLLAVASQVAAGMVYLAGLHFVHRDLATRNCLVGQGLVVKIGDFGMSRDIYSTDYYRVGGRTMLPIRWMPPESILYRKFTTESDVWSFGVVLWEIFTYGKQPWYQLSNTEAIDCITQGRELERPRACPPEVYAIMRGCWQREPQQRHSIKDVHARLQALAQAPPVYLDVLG
- assay name: In vitro TrkA inhibitory activity using TR-FRET assay
- Format: biochemical
- conditions: 5 ng TrkA, 500 μM ATP, read-out: TrkA inhibition in-vitro IC50

Worked examples, 8 compounds total:
CC(C)S(=O)(=O)NC(=O)c1cnn2ccc(N3C[C@@H](F)C[C@@H]3c3cccc(F)c3)c(F)c12 [Example 141]; ≤ 50 nM
CC(C)S(=O)(=O)NC(=O)c1cnn2ccc(N3CCC[C@@H]3c3cc(F)ccc3F)cc12 [Example 7]; ≤ 50 nM
CC(C)(C)S(=O)(=O)NC(=O)c1cnn2ccc(N3CCC[C@@H]3c3cc(F)ccc3Cl)cc12 [Example 47]; 50 to 100 nM
O=C(NS(=O)(=O)c1ccc2c(c1)OCO2)c1cnn2ccc(N3CCC[C@@H]3c3cc(F)ccc3F)cc12 [Example 35]; 50 to 100 nM
CN(CC1CC1)S(=O)(=O)NC(=O)c1cnn2ccc(N3CCC[C@@H]3c3cc(F)ccc3F)cc12 [Example 80]; ≤ 50 nM
CN(C)S(=O)(=O)NC(=O)c1cnn2ccc(N3CCC[C@@H]3c3cc(F)ccc3F)cc12 [Example 76]; ≤ 50 nM
O=C(NS(=O)(=O)c1ccc(N2CC[C@H](O)C2)cc1)c1cnn2ccc(N3CCC[C@@H]3c3cc(F)ccc3F)cc12 [Example 8]; ≤ 50 nM
CCN(C)S(=O)(=O)NC(=O)c1cnn2ccc(N3CCC[C@@H]3c3cc(F)ccc3OC)cc12 [Example 91]; ≤ 50 nM

Please examine the following record next.
Prompt: What value of IC50 has been recorded for this entry: O=C(NS(=O)(=O)c1ccc(Cl)s1)c1cnn2ccc(N3CCC[C@@H]3c3cc(F)ccc3F)cc12 [Example 31]
Response: ≤ 50 nM

Measured values drawn from patent US10047087B2 for this set.
